Catalogue of pIC50 readings, one per entry.
Target: human PDHK2 (hPDHK2) (Homo sapiens (Human), UniProt Q15119)
Experiment: Inhibitory action of PDHK activity in vitro (kinase reaction, residual PDH activity measured)
Type: biochemical
Conditions: read-out: PDHK inhibitory activity IC50
Give only the number. pIC50 is defined as minus log10 of concentration in molar units.

Use the examples below as a reference point.
[[record]]
compound = "Cn1cc(-c2cc(OC(CO)CO)cc3c2-c2ccccc2C3(O)C(F)(F)F)cn1 (stereo not shown)"
target_entity = "human PDHK2 (hPDHK2) (Homo sapiens (Human), UniProt Q15119)"
observed_measurement = 7.24

[[record]]
compound = "O=C(O)CCn1cc(-c2cnc3c(c2)C(O)(C(F)(F)F)c2ccccc2-3)cn1 (stereo not shown)"
target_entity = "human PDHK2 (hPDHK2) (Homo sapiens (Human), UniProt Q15119)"
observed_measurement = 7.08

[[record]]
compound = "Cn1cc(-c2cc(N3CCC(C(=O)O)CC3)cc3c2-c2ccccc2C3(O)C(F)(F)F)cn1 (stereo not shown)"
target_entity = "human PDHK2 (hPDHK2) (Homo sapiens (Human), UniProt Q15119)"
observed_measurement = 7.09


Query block: Input COC(=O)COc1cc(Br)c2c(c1)C(O)(C(F)(F)F)c1ccccc1-2 (single isomer, unassigned) [compound 452] , output reported pIC50.
Result block: 5.57

Entry source: patent US8871934B2
